TESTED SYSTEM: T1, Human CD137 ECD (human)
T1 construct: also called 4-1BB
T1 sequence (chain, as listed by the source limits assumed): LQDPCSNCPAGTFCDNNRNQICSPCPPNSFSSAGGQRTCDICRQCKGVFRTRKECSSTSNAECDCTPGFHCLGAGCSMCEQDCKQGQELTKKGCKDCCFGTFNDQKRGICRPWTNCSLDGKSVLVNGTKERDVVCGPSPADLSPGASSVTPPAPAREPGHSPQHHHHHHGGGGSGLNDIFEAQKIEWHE
EXPERIMENTAL DETAILS: single mutant vs template dBBDu183H
REPORTED PROPERTY: fold change of affinity (fold)
Lab book: enter the figure in fold, no units written.

Guide cases for fold change of affinity, answers given:
- BINDER: "H183/L072 VH N31I (antibody, name in Kabat numbering, V domains shown) VH: QVQLVESGGGLVQPGRSLRLSCAASGFTFSIAWMHWVRQAPGKGLEWVAQIKDKGNAYAAYYAPSVKGRFTISRDDSKNSIYLQMNSLKTEDTAVYYCHYVHYASASTVLPAFGVDAWGQGTTVTVSS VL: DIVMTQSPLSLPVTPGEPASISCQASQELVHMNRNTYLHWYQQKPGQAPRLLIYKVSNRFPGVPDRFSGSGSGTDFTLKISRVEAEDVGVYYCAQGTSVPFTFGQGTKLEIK"
  U: "fold"
  fold change of affinity: 0.3
- BINDER: "H183/L072 VH F100gM (antibody, name in Kabat numbering, V domains shown) VH: QVQLVESGGGLVQPGRSLRLSCAASGFTFSNAWMHWVRQAPGKGLEWVAQIKDKGNAYAAYYAPSVKGRFTISRDDSKNSIYLQMNSLKTEDTAVYYCHYVHYASASTVLPAMGVDAWGQGTTVTVSS VL: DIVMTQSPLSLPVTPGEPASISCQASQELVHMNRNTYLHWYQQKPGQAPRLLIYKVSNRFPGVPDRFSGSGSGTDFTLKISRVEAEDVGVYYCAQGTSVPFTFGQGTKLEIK"
  U: "fold"
  fold change of affinity: 0.6

Attention now shifts to the item below.
[ask] What value of measured fold change of affinity is listed for H183/L072 VH Y59V (antibody, name in Kabat numbering, V domains shown) VH: QVQLVESGGGLVQPGRSLRLSCAASGFTFSNAWMHWVRQAPGKGLEWVAQIKDKGNAYAAYVAPSVKGRFTISRDDSKNSIYLQMNSLKTEDTAVYYCHYVHYASASTVLPAFGVDAWGQGTTVTVSS VL: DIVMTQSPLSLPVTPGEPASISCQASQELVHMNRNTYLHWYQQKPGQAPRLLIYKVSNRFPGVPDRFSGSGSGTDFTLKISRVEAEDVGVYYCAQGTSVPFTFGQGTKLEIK ?
[reply] 0.8
